# Tested on: human diploid embryonic lung fibroblast hMRC-5SV2 cells
# protocol_summary: in vitro
Parameter: CC50. Scope: all listed entries.

N#Cc1ccc(C2CC(=O)CC(c3ccc(C#N)cc3)S2)cc1 (racemic) [2t] ... > 64 µM
O=C1CC(c2ccccc2Cl)SC(c2ccccc2Cl)C1 (racemic) [2e] ... > 64 µM
N#Cc1ccc(/C=C/C(=O)/C=C/c2ccccc2)cc1 [1’l] ... 38.7 µM
C=CCOc1ccc(/C=C/C(=O)/C=C/c2ccc(OCC=C)c(OC)c2)cc1OC [1k] ... > 64 µM

Note: attention shifts to another entry.
// map O=C(/C=C/c1ccccc1)/C=C/c1ccc(C(F)(F)F)cc1 [1’b] to recorded CC50 (system: human diploid embryonic lung fibroblast hMRC-5SV2 cells)
> 64 µM

* * *

# System: human diploid embryonic lung fibroblast hMRC-5SV2 cells
# protocol_summary: Cytotoxicity toward hMRC-5SV2 cells (resazurin)
# assay_setup: read-out: CC50 hMRC-5 (cytotoxicity); human hMRC-5SV2 fibroblasts, 3 days
readout_kind: CC50 (µM)
Write it as a number; the unit µM goes unstated.

Item CC[C@H](C)[C@H]1O[C@]2(CC[C@@H]1C)C[C@@H]1C[C@@H](C/C=C(\C)[C@@H](O[C@H]3C[C@H](OC)[C@@H](O[C@H]4C[C@H](OC)[C@@H](O)[C@H](C)O4)[C@H](C)O3)[C@@H](C)/C=C/C=C3\CO[C@@H]4[C@H](O)C(C)=C[C@@H](C(=O)O1)[C@]34O)O2 [ivermectine, ivermectin, reference compound] has what recorded CC50?
3.5

* * *

Parameter: pIC50. Scope: all listed entries.
# Tested on: WT LV9 L. donovani intramacrophage amastigotes
# protocol_summary: L. donovani intramacrophage amastigote assay
# Type: cell-based, Leishmania donovani
# assay_setup: Leishmania donovani, WT LV9; ± SD in Tables S5/S6; read-out: IC50 L. donovani intramacrophage amastigotes
Please report pIC50 as the negative decimal logarithm of the molar concentration, giving only the number.

O=C(/C=C/c1ccc(Cl)cc1)/C=C/c1ccc(Cl)cc1 ... 5.20

// map CN(C)c1ccc(/C=C/C(=O)/C=C/c2ccc(N(C)C)cc2)cc1 to recorded pIC50 (system: WT LV9 L. donovani intramacrophage amastigotes)
5.20

* * *

# System: human diploid embryonic lung fibroblast hMRC-5SV2 cells
# protocol_summary: in vitro
readout_kind: CC50 (µM)
Write it as a number; the unit µM goes unstated.

# annotated cases, reported CC50 shown
CC(=O)Nc1ccc(/C=C/C(=O)/C=C/c2ccc(NC(C)=O)cc2)cc1 ... 34
O=C1CC(c2ccc(C(F)(F)F)cc2)SC(c2ccc(C(F)(F)F)cc2)C1 (racemic) ... 10.2
COc1ccc(C2CC(=O)CC(c3ccc(OC)c(OC)c3)S2)cc1OC (racemic) ... 9.3

Item Cc1ccc(/C=C/C(=O)/C=C/c2ccccc2)cc1 has what recorded CC50?
47

* * *

# Tested on: Trypanosoma cruzi (Tulahuen CL2 β-galactosidase) amastigotes in hMRC-5SV2 cells
# protocol_summary: T. cruzi intracellular amastigote assay (β-galactosidase/CPRG)
# Type: cell-based
# assay_setup: intracellular amastigotes, 7 days; read-out: IC50 T. cruzi intramacrophage amastigotes (converted)
# Experimental: A nifurtimox-sensitive strain (Tulahuen CL2 β-galactosidase) in human lung fibroblast hMRC-5SV2 cells was incubated for 7 days in 96-well plates with five concentrations of compound (64, 16, 4, 1, and 0.25 μM). The parasitic burden was evaluated through the activity of the enzyme β-galactosidase on a specific chlorophenol red ß-D-galactopyranoside (CPRG) substrate. […]
readout_kind: log10 of IC50 (log10 of the value in µM)
On a log10 scale: recorded IC50, unit µM.

# annotated cases, reported log10 of IC50 shown
Cc1ccc(C2CC(=O)CC(c3ccc(C)cc3)S2)cc1 (racemic) ... 0.57
O=C1CC(c2ccc(C(F)(F)F)cc2)SC(c2ccc(C(F)(F)F)cc2)C1 (racemic) ... 0.40
N#Cc1ccc(/C=C/C(=O)/C=C/c2ccccc2)cc1 ... 0.52
CN(C)c1ccc([C@H]2CC(=O)C[C@H](c3ccc(N(C)C)cc3)S2)cc1 (racemic) ... 0.40
O=C1CC(c2ccccn2)S(=O)(=O)C(c2ccccn2)C1 (centres unmarked) ... -0.40
C=CCOc1ccc(/C=C/C(=O)/C=C/c2ccc(OCC=C)c(OC)c2)cc1OC ... 1.57
COc1ccc(C2CC(=O)CC(c3ccc(OC)c(OC)c3)S2)cc1OC (racemic) ... 0.86
COc1ccc(C2CC(=O)CC(c3ccc(OC)cc3)[S+]2[O-])cc1 (mixture of isomers) [3d] ... 0.95
CC(=O)Nc1ccc(/C=C/C(=O)/C=C/c2ccc(NC(C)=O)cc2)cc1 ... 1.01
COc1ccc(C2CC(=O)CC(c3ccc(OC)cc3)S2(=O)=O)cc1 (centres unmarked) ... 1.54

Item Cc1ccccc1/C=C/C(=O)/C=C/c1ccccc1C has what recorded log10 of IC50?
1.71

* * *

# Test system: macrophages
# assay_setup: bracketed value after the intramacrophage IC50 (Table S5); Table S6
Parameter: observed macrophage death / lysis observed at. Scope: all listed entries.

# annotated cases, reported observed macrophage death / lysis observed at shown
CN(C)c1ccc(/C=C/C(=O)/C=C/c2nccs2)cc1 ... > 37.5 µM
CC(=O)Nc1ccc(/C=C/C(=O)/C=C/c2ccc(NC(C)=O)cc2)cc1 ... 100 µM
COc1ccc(/C=C/C(=O)/C=C/c2ccc3ccccc3c2)cc1 ... > 150 µM

Item Cc1ccccc1C1CC(=O)CC(c2ccccc2C)S1 (racemic) has what recorded observed macrophage death / lysis observed at?
> 50 µM

Item N#Cc1ccc(C2CC(=O)CC(c3ccc(C#N)cc3)S2)cc1 (racemic) has what recorded observed macrophage death / lysis observed at?
> 100 µM

Item O=C1CC(c2ccccc2Cl)SC(c2ccccc2Cl)C1 (racemic) has what recorded observed macrophage death / lysis observed at?
> 150 µM

Item O=C1CC(c2ccccc2)SC(c2ccccc2)C1 (racemic) has what recorded observed macrophage death / lysis observed at?
200 µM

Item Cc1ccc(C2CC(=O)CC(c3ccc(C)cc3)S2)cc1 (racemic) has what recorded observed macrophage death / lysis observed at?
200 µM

Item O=C1CC(c2ccc(Cl)cc2)SC(c2ccc(Cl)cc2)C1 (racemic) has what recorded observed macrophage death / lysis observed at?
> 75 µM

Item COc1ccc(/C=C/C(=O)/C=C/c2ccccc2)cc1 has what recorded observed macrophage death / lysis observed at?
> 37.5 µM

Item O=C1CC(c2ccco2)SC(c2ccco2)C1 (racemic) has what recorded observed macrophage death / lysis observed at?
> 150 µM

Item O=C1CC(c2ccc(C(F)(F)F)cc2)SC(c2ccc(C(F)(F)F)cc2)C1 (racemic) has what recorded observed macrophage death / lysis observed at?
200 µM

Item COc1ccc(C2CC(=O)CC(c3ccc(OC)c(OC)c3)S2)cc1OC (racemic) has what recorded observed macrophage death / lysis observed at?
> 150 µM

Item CN(C)c1ccc([C@H]2CC(=O)C[C@H](c3ccc(N(C)C)cc3)S2)cc1 (racemic) has what recorded observed macrophage death / lysis observed at?
100 µM

Item CC(=O)Nc1ccc(C2CC(=O)CC(c3ccc(NC(C)=O)cc3)S2)cc1 (racemic) has what recorded observed macrophage death / lysis observed at?
> 100 µM

Item Cc1ccccc1/C=C/C(=O)/C=C/c1ccccc1C has what recorded observed macrophage death / lysis observed at?
> 37.5 µM

* * *

# Test system: L. infantum (MHOM/MA(BE)/67) amastigotes in primary peritoneal mouse macrophages
# protocol_summary: L. infantum intramacrophage amastigote assay (microscopic burden)
# Assay type: cell-based, Leishmania infantum
# assay_setup: 5 days, mouse macrophages as host
readout_kind: IC50 (µM)
Write it as a number; the unit µM goes unstated.

COc1ccc(C2CC(=O)CC(c3ccc(OC)cc3)[S+]2[O-])cc1 (stereo not shown) [3″d] ... 27.3
N#Cc1ccc(/C=C/C(=O)/C=C/c2ccccc2)cc1 ... 7
O=C1CC(c2ccccc2Cl)SC(c2ccccc2Cl)C1 (racemic) ... 32
Cc1ccccc1C1CC(=O)CC(c2ccccc2C)S1 (racemic) ... 43.1

Note: attention shifts to another entry.
Item O=C(/C=C/c1ccccc1)/C=C/c1ccccn1 has what recorded IC50?
1.3

* * *

Parameter: CC50. Scope: all listed entries.
# System: human diploid embryonic lung fibroblast hMRC-5SV2 cells
# protocol_summary: in vitro

Cc1ccccc1/C=C/C(=O)/C=C/c1ccccc1C ... > 64 µM

// map CN(C)c1ccc(/C=C/C(=O)/C=C/c2ccc(C(F)(F)F)cc2)cc1 to recorded CC50 (system: human diploid embryonic lung fibroblast hMRC-5SV2 cells)
> 64 µM

// map CN(C)c1ccc(/C=C/C(=O)/C=C/c2nccs2)cc1 to recorded CC50 (system: human diploid embryonic lung fibroblast hMRC-5SV2 cells)
> 64 µM

* * *

# Test system: Trypanosoma cruzi (Tulahuen CL2 β-galactosidase) amastigotes in hMRC-5SV2 cells
# protocol_summary: T. cruzi intracellular amastigote assay (β-galactosidase/CPRG)
# Type: cell-based
# assay_setup: intracellular amastigotes, 7 days; read-out: IC50 T. cruzi intramacrophage amastigotes (converted)
readout_kind: IC50

O=C1CC(c2c(Cl)cccc2Cl)SC(c2c(Cl)cccc2Cl)C1 (racemic) [2h] ... > 64 µM

Item O=C1CC(c2ccco2)SC(c2ccco2)C1 (racemic) [2z] has what recorded IC50?
> 64 µM

Item O=C1CC(c2ccccn2)SC(c2ccccn2)C1 (stereo not drawn) [2′w] has what recorded IC50?
≥ 64 µM

Item O=C(/C=C/c1ccccc1)/C=C/c1ncccn1 [1’r] has what recorded IC50?
≤ 0.2 µM

Item Cc1ccccc1C1CC(=O)CC(c2ccccc2C)S1 (racemic) [2b] has what recorded IC50?
≥ 64 µM

Item COc1ccc(C2CC(=O)CC(c3ccc(OC)cc3)S2)cc1 (stereo not drawn) [2′d] has what recorded IC50?
≥ 64 µM

Taken from paper PMC11013284.
